- System: CAKI-1 renal
- Protocol Details: NCI tumour cell line growth inhibition, 48 h; in the data active means GI50 below about 0.43 µM; inactive means the rest
*1 amine or outer side, *2 acyl side, *3 side chain or, on linkers, in order; H or OH if unused. Where a SMILES comes first, the peptide text is derived from it. [ ]: non-standard residue; d: D form. ξ: configuration not given here. X21 = CC[C@@H](C)C(N[*:1])C(=O)[*:2]; ξR = N=C(N)NCCCC(N)C(=O)O; ξI = CCC(C)C(N)C(=O)O; ξL = CC(C)CC(N)C(=O)O; ξK = NCCCCC(N)C(=O)O; ξV = CC(C)C(N)C(=O)O; ξA = CC(N)C(=O)O
Respond only with the outcome that fits, drawn from active, inactive

QUERY: What did this assay record as the result for O=C1CCS/C(=N\S(=O)(=O)c2ccc(N3N=C4c5ccccc5CC4C3c3cccs3)cc2)N1C(=O)c1ccccc1 (configuration not stated) ?
RESULT: inactive

QUERY: Same question for CCC(C)C1NC(=O)C(CC(C)C)NC(=O)C(C)NC(=O)C(C(C)C)NC(=O)C(CCCCN)NC(=O)C(CC(C)C)NC(=O)C(C(C)C)NC(=O)[C@H](C)NC(=O)C(C(C)CC)NC(=O)C(CCCN=C(N)N)NC(=O)C(CCCCN)NC(=O)C(CCCN=C(N)N)NC(=O)C(CCCCN)NC(=O)C([C@H](C)CC)NC(=O)C(CCCCN)NC1=O (some centres not stated) (cyclo(A[ξV][ξL][ξK][ξV][ξA][ξL][ξI][ξK][X21][ξK][ξR][ξK][ξR][ξI])) please.
RESULT: inactive

QUERY: Same question for C=C1C[C@@]2(C)C(CC[C@]3(C)C2CC=C2C4CC(C)(C)C[C@@H](OC(=O)/C(C)=C\C)[C@]4(C(=O)O)CC[C@]23C)C(C)(C)C1=O (some centres not stated) please.
RESULT: inactive

QUERY: Same question for CCNCCCn1c2c(c3ccc([N+](=O)[O-])cc3c1=O)C(=O)c1cc(OC)cnc1-2 please.
RESULT: active

QUERY: Same question for NC(=O)c1ccc2nc3c(n2c1)C(=O)C(=O)c1ccccc1-3 please.
RESULT: inactive

QUERY: Same question for COc1ccc2c(c1)/C(=N/OC(C)=O)c1c-2c(=O)[nH]c2ccccc12 please.
RESULT: inactive

QUERY: Same question for COc1ccc(-c2csc(NC(=O)c3cc(O)c(O)c(O)c3)n2)cc1 please.
RESULT: inactive

QUERY: Same question for COc1cc(/C=C2\C(=O)Nc3cccc(Cl)c32)cc(OC)c1OC please.
RESULT: inactive

QUERY: Same question for CN(C)CCCn1c2nc(=O)[nH]c(=O)c-2nc2cc(Cl)c(Cl)cc21 please.
RESULT: inactive

QUERY: Same question for O=C(COc1cccc(/C=C2\CSc3ccccc3C2=O)c1)c1ccc(Cl)cc1 please.
RESULT: inactive

QUERY: Same question for CCOC(=O)c1cc(C(=O)c2cc(OC)c(OC)c(OC)c2)n2ccccc12 please.
RESULT: active

QUERY: Same question for C1COCCOCCOCCOCCO1.CC(=O)[CH-]C(C)=O.CC(=O)[CH-]C(C)=O.CC(=O)[CH-]C(C)=O.[V] please.
RESULT: inactive

QUERY: Same question for Cc1cc2cn3c4cccnc4[nH]c(=O)c3c2cc1C please.
RESULT: inactive

QUERY: Same question for Cc1ccc(Sc2sc(-c3ccccc3)nc2[P+](c2ccccc2)(c2ccccc2)c2ccccc2)cc1 please.
RESULT: active

QUERY: Same question for CN1CCN(c2ccc(C(=O)Nc3cc(-c4cccc(NS(=O)(=O)c5ccccc5)c4)[nH]n3)cc2)CC1 please.
RESULT: inactive

QUERY: Same question for O=C1NN(c2ccccc2)C(=O)/C1=C/c1ccc(Br)o1 please.
RESULT: inactive

QUERY: Same question for COc1cc2c(cc1OCCCCOc1ccc(-c3nc4ccccc4s3)cc1)N=C[C@@H]1CCCN1C2=O please.
RESULT: inactive

QUERY: Same question for NC1CCC(N[C@@H]2C[C@H]2c2ccccc2)CC1 (some centres not stated) please.
RESULT: inactive
